# Tested on: HT29
# Conditions Used: 72 h, relative to DMSO; 10 µM
Parameter: Relative cell viability (%) (%)
One number for each entry, in %.

Worked examples, 3 molecules total:
- Molecule: "CCOc1nc2cccc(C(=O)OCc3oc(=O)oc3C)c2n1Cc1ccc(-c2ccccc2-c2noc(=O)[nH]2)cc1"
  Parameter: "Relative cell viability (%)"
  Readout Units: "%"
  Measurement: 116
- Molecule: "NC[C@H](O)c1ccc(O)c(O)c1 [Noradrenaline bitartrate monohydrate]"
  Parameter: "Relative cell viability (%)"
  Readout Units: "%"
  Measurement: 75.24
- Molecule: "CCOC(=O)c1c(C)n(C)c2ccc(O)cc12 [Mecarbinate]"
  Parameter: "Relative cell viability (%)"
  Readout Units: "%"
  Measurement: 130.3

Lab note: next molecule to report on.
Report Relative cell viability (%), nothing else, for this molecule: `CCOC(=O)c1ncn2c1CN(C)C(=O)c1cc(F)ccc1-2`
80.53

---

# Tested on: HT29
# Conditions Used: 72 h, relative to DMSO; 10 µM
Consider the following molecules; for each one, report its Relative cell viability (%).
Answers are plain numbers, in %.

Worked examples, 6 molecules total:
- Molecule: "CCCCNC(=O)NS(=O)(=O)c1ccc(C)cc1 [Tolbutamide]"
  Relative cell viability (%) [%]: 106.1
- Molecule: "COc1cc2c(cc1OC)CN(CCc1ccc(NC(=O)c3cccc4c(=O)c5cccc(OC)c5[nH]c34)cc1)CC2"
  Relative cell viability (%) [%]: 48.29
- Molecule: "CCOc1nc2cccc(C(=O)O)c2n1Cc1ccc(-c2ccccc2-c2noc(=O)[nH]2)cc1"
  Relative cell viability (%) [%]: 73.79
- Molecule: "NC(=O)CN1CC(O)CC1=O (stereo not shown)"
  Relative cell viability (%) [%]: 54.85
- Molecule: "Nc1nc(O)c2ncn(COC(CO)CO)c2n1"
  Relative cell viability (%) [%]: 103.4
- Molecule: "CCn1cc(C(=O)O)c(=O)c2cc(F)c(N3CCNCC3)nc21"
  Relative cell viability (%) [%]: 74.15

Okay, here is my list. What is Relative cell viability (%) for each of these?
1. C[C@@H]1O[C@@H](OC[C@H]2O[C@@H](Oc3c(-c4ccc(O)c(O)c4)oc4cc(O)cc(O)c4c3=O)[C@H](O)[C@@H](O)[C@@H]2O)[C@H](O)[C@H](O)[C@H]1O
2. CC1=C(C(=O)OC(C)C)C(c2cccc([N+](=O)[O-])c2)C(C(=O)OC2CN(C(c3ccccc3)c3ccccc3)C2)=C(N)N1 (stereo not shown)
3. CC(=O)OCC[N+](C)(C)C [Acetylcholine Chloride]
4. Cc1ccc(NC(=O)c2ccc(CN3CC[C@H](N(C)C)C3)c(C(F)(F)F)c2)cc1Nc1nccc(-c2cncnc2)n1
5. CCCCCCCCOc1ccccc1C(=O)Nc1ccc(C(=O)OCC[N+](C)(CC)CC)cc1 [Otilonium Bromide]
6. C/C(=C\C(=O)OCCCCCCCCC(=O)O)C[C@@H]1OC[C@H](C[C@@H]2O[C@H]2[C@@H](C)[C@H](C)O)[C@@H](O)[C@H]1O
7. O=C(O)c1ccc2c(c1)nc(Nc1cccc(Cl)c1)c1ccncc12 [CX-4945 (Silmitasertib)]

[112, 73.79, 93.22, 4.206, 59.22, 92.12, 120.8]
